The compounds listed here are annotated with their pEC50.
tested.target: Gal4-RORγ-LBD (Homo sapiens, UniProt P51449)
Construct: expressed in transfected cells
assay.overview: Gal4-RORγ Luciferase Reporter Assay in HEK-293T Cells
Format: cell-based
recorded.conditions: HEK-293 cells, luciferase reporter, with ursolic acid
pEC50: −log10 of the molar value.

Here are 5 compounds together with their reported answers.
[
  {
    "compound": "O=C(O)CC[C@H]1CN(S(=O)(=O)c2cccc(C(F)(F)F)c2)c2cc(C=C3CCCC3)ccc2O1",
    "pEC50": "5.30 to 6.30"
  },
  {
    "compound": "O=C(O)CC[C@H]1CN(S(=O)(=O)c2cccc(C(F)(F)F)c2)c2cc(/C=C3\\CCCc4ccccc43)ccc2O1",
    "pEC50": "> 6.30"
  },
  {
    "compound": "CCOc1ncc(C(F)(F)F)cc1S(=O)(=O)N1C[C@H](CCC(=O)O)Oc2ccc(/C=C/c3c(Cl)cccc3C(C)(F)F)cc21 [Example 89FG]",
    "pEC50": "> 6.30"
  },
  {
    "compound": "CCOc1nn(CC)cc1S(=O)(=O)N1C[C@H](CCC(=O)OC)Oc2ccc(/C=C/c3c(C)cccc3F)cc21 [Example 89AH]",
    "pEC50": "> 6.30"
  },
  {
    "compound": "O=C(O)CC[C@H]1CN(S(=O)(=O)c2cccc(C(F)(F)F)c2)c2cc(/C=C/c3ccncn3)ccc2O1 [Example 89CC]",
    "pEC50": "< 5.00"
  }
]

Query block: # query: pEC50 | item CCOc1nn(CC)cc1S(=O)(=O)N1C[C@H](CCC(=O)O)Oc2ccc(/C=C/c3ccccc3Cl)cc21 [Example 89BC] | system: Gal4-RORγ-LBD (Homo sapiens, UniProt P51449)
Result block: 5.30 to 6.30

Query block: # query: pEC50 | item COC(=O)CC[C@H]1CN(S(=O)(=O)c2cccc(OC(F)F)c2)c2cc(/C=C/c3c(F)cccc3C(F)(F)F)ccc2O1 [Example 89AJ] | system: Gal4-RORγ-LBD (Homo sapiens, UniProt P51449)
Result block: 5.30 to 6.30

Query block: Hi! What's the reported pEC50 for COC(=O)CC[C@H]1CN(S(=O)(=O)c2cc(C(F)(F)F)cnc2OCCO)c2cc(/C=C/c3c(F)cccc3Cl)ccc2O1 [Example 89EB] on Gal4-RORγ-LBD (Homo sapiens, UniProt P51449)?
Result block: > 6.30

Query block: Lab note: need pEC50 for CCOc1nn(CC)cc1S(=O)(=O)N1C[C@H](CCC(=O)O)Oc2ccc(/C=C/c3ncccc3F)cc21 [Example 89W] on Gal4-RORγ-LBD (Homo sapiens, UniProt P51449), anyone have it?
Result block: < 5.00

Query block: Query the reported pEC50 for Gal4-RORγ-LBD (Homo sapiens, UniProt P51449); item: O=C(O)CC[C@H]1CN(S(=O)(=O)c2cc(C(F)(F)F)cnc2OCCCO)c2cc(/C=C/c3c(F)cccc3Cl)ccc2O1 [Example 89FC]
Result block: 5.30 to 6.30

###

tested.target: Gal4-RORγ-LBD (Homo sapiens)
Construct: expressed in transfected cells
Sequence (P51449 269-508 limits assumed): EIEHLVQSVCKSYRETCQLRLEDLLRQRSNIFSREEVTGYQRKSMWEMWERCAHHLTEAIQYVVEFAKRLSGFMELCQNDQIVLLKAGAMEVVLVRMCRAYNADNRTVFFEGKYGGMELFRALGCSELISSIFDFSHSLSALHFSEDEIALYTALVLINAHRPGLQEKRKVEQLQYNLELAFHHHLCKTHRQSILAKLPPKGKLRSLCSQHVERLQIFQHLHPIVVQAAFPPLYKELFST
assay.overview: Gal4-RORγ Luciferase Reporter Assay in HEK-293T Cells
Format: cell-based
recorded.conditions: HEK-293 cells, luciferase reporter, with ursolic acid
pEC50: −log10 of the molar value.
measure: pEC50

Query block: Reported pEC50, molecule "COC(=O)CC[C@H]1CN(S(=O)(=O)c2cccc(C(F)(F)F)c2)c2cc(/C=C(\C)c3c(F)cccc3Cl)c(Cl)cc2O1" : ____
Result block: 5.30 to 6.30

Query block: Requested read-out: pEC50. Entry: C/C(=C\c1ccc2c(c1)N(S(=O)(=O)c1ccc(F)c(C(F)(F)F)c1)C[C@H](CCC(=O)O)O2)c1c(F)cccc1Cl [Example 86A]
Result block: 5.30 to 6.30

Query block: # get_value(readout='pEC50', item= CCc1ccccc1/C=C/c1ccc2c(c1)N(S(=O)(=O)c1cccc(OC(F)F)c1)C[C@H](CCC(=O)OC)O2 [Example 89AX] )
Result block: 5.30 to 6.30

###

# maps each entry to its EC50
tested.target: Gal4-RORγ-LBD (Homo sapiens, UniProt P51449)
Construct: expressed in transfected cells
assay.overview: Gal4-RORγ Luciferase Reporter Assay in HEK-293T Cells
Format: cell-based
recorded.conditions: HEK-293 cells, luciferase reporter, in presence of ursolic acid

Solved entries (count: 4):
[
  {
    "compound": "C/C(=C\\c1ccc2c(c1)N(S(=O)(=O)c1cccc(C(F)(F)F)c1)C[C@H](CCC(=O)N1CCCC1)O2)c1c(F)cccc1Cl",
    "EC50": "< 0.5 µM"
  },
  {
    "compound": "C/C(=C\\c1ccc2c(c1)N(S(=O)(=O)c1cccc(C(F)(F)F)c1)C[C@H](CCN1CCCC1)O2)c1c(F)cccc1Cl",
    "EC50": "0.5 to 5 µM"
  },
  {
    "compound": "COc1cc(S(=O)(=O)N2C[C@H](CCC(=O)O)Oc3ccc(/C=C(\\C)C4CCCCC4)cc32)ccc1F",
    "EC50": "> 10 µM"
  },
  {
    "compound": "CC/C(C)=C\\c1ccc2c(c1)N(S(=O)(=O)c1cccc(C(F)(F)F)c1)C[C@H](CCC(=O)O)O2 [Example 191B]",
    "EC50": "0.5 to 5 µM"
  }
]

Query block: Any idea what EC50 was measured for C/C(=C\c1ccc2c(c1)N(S(=O)(=O)c1cccc(C(F)(F)F)c1)[C@H](C)[C@@H](O)C2)c1c(F)cccc1Cl (racemic) ?
Result block: 0.5 to 5 µM

Query block: Which value of EC50 has been reported for COC(=O)CCC1CC(S(=O)(=O)c2ccc(F)c(OC)c2)c2cc(OCc3c(F)cccc3Cl)ccc2O1 (stereo not shown) in the records?
Result block: 0.5 to 5 µM

Query block: Requested read-out: EC50. Entry: COC(=O)CCC1CC(S(=O)(=O)c2ccc(F)c(OC)c2)c2cc(/C=C(\C)c3c(F)cccc3Cl)ccc2O1 (stereo not shown) [Example 186F]
Result block: < 0.5 µM

Query block: Bench note: what EC50 did C/C(=C\c1ccc2c(c1)N(S(=O)(=O)c1cccc(C(F)(F)F)c1)C[C@H](CCC(=O)N1CC3(COC3)C1)O2)c1c(F)cccc1Cl [Example 127D] show?
Result block: < 0.5 µM

Query block: Recorded EC50 of COC(=O)CO[C@@H]1Cc2ccc(OCc3c(F)cccc3Cl)cc2N(S(=O)(=O)c2cccc(C(F)(F)F)c2)C1 [Example 173A] , please.
Result block: < 0.5 µM

Query block: Entry C/C(=C\c1ccc2c(c1)N(S(=O)(=O)c1cccc(C(F)(F)F)c1)[C@H](C)[C@H](O)C2)c1c(F)cccc1Cl (racemic) : reported EC50 = ?
Result block: 0.5 to 5 µM

Query block: So what's the measured EC50 for this one? "O=S(=O)(c1cccc(C(F)(F)F)c1)N1C[C@H](CO)Oc2ccc(Oc3ccccc3Cl)cc21"
Result block: < 0.5 µM

Query block: Item CC/C(C)=C\c1ccc2c(c1)N(S(=O)(=O)c1cc(C(F)(F)F)cnc1OCCO)C[C@H](CCC(=O)O)O2 [Example 191D] has what recorded EC50?
Result block: > 10 µM

Query block: Which EC50 value belongs to "COc1cc(S(=O)(=O)N2c3cc(/C=C(\C)c4c(F)cccc4Cl)ccc3O[C@@H](CNC(C)=O)[C@H]2C)ccc1F" ?
Result block: < 0.5 µM

###

The reader will find reported EC50 values listed item by item below.
tested.target: RORγ-LBD (Homo sapiens)
Construct: made in house; host or cells: SF9 cells (baculovirus); used as diluted lysate
assay.overview: RORγ-Ligand Binding Domain (LBD) TR-FRET Assay
Assay type: biochemical
recorded.conditions: RORγ-LBD TR-FRET

Take a look at these entries with their results.
[
  {
    "molecule": "O=C(O)CC[C@H]1CN(S(=O)(=O)c2cccc(C(F)(F)F)c2)c2cc(C=C3CCC(O)CC3)ccc2O1 (stereo partly shown)",
    "EC50": "< 500 nM"
  },
  {
    "molecule": "COc1cc(S(=O)(=O)N2CCCc3ccc(OCc4c(Cl)cccc4Cl)cc32)ccc1F [Example 25P]",
    "EC50": "< 500 nM"
  },
  {
    "molecule": "C/C(=C\\c1ccc2c(c1)N(S(=O)(=O)c1c(Cl)nc3sccn13)C[C@H](CCC(=O)O)O2)c1c(F)cccc1Cl [Example 86U]",
    "EC50": "< 500 nM"
  }
]

Query block: Report EC50 for COC(=O)CC[C@H]1CN(S(=O)(=O)c2cccc(OC(F)F)c2)c2cc(/C=C/c3ccccc3C(F)(F)F)ccc2O1 [Example 89AP] please.
Result block: < 500 nM

Query block: // lookup EC50 for O=C(O)CC[C@H]1CN(S(=O)(=O)c2ccc(F)c(OC(F)F)c2)c2cc(/C=C/c3c(F)cccc3Cl)ccc2O1 [Example 89CV]
Result block: < 500 nM

Query block: Requested read-out: EC50. Entry: CCOc1nn(CC)cc1S(=O)(=O)N1C[C@H](CCC(=O)O)Oc2ccc(/C=C/c3cccnc3)cc21 [Example 89I]
Result block: > 10000 nM

Query block: I have this molecule here, COc1cc(S(=O)(=O)N2CCCc3ccc(O[C@@H]4c5ccccc5C[C@H]4C)cc32)ccc1F (relative stereo) [Example 25E] , and I need its recorded EC50.
Result block: < 500 nM
